Histamine H3 receptor (Homo sapiens, UniProt Q9Y5N1): recorded pKi for assorted molecules
Sequence (Q9Y5N1 whole entry): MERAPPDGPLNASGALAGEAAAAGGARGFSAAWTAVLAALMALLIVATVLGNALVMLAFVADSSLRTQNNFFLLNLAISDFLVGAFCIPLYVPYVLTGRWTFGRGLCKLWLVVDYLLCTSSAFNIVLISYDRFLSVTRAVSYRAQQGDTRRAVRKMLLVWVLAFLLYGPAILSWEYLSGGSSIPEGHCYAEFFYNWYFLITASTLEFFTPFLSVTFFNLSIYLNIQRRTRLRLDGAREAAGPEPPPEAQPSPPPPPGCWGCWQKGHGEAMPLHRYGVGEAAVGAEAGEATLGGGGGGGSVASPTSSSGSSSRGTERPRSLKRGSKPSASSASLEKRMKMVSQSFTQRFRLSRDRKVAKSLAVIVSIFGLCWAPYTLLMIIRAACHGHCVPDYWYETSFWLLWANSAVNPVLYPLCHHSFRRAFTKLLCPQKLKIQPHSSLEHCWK
One number for each entry, as −log10 of the molar value.

Worked set:
Item: O=C(NCCc1ccc(OCCN2CCOCC2)c(Br)c1)c1cc(Br)c[nH]1 | pKi: 4.89

Item: O=C(NCCc1ccc(OCCN2CCCC2)c(Br)c1)c1cnco1 | pKi: 7.52

Item: CN(C)CCOc1ccc(CCNC(=O)c2cccn2C)cc1Br | pKi: 5.67

Item: CN1CCCC(COc2ccc(CCNC(=O)c3cccn3C)cc2Br)C1 (centres undefined) | pKi: 5.78

Item: CN(C)CCCOc1ccc(CCNC(=O)c2ccc(Br)o2)cc1Br | pKi: 5.64

I would be grateful if you could provide pKi for each of the following entries.
1. CN1CCCC(COc2ccc(CCNC(=O)c3cc(Br)c[nH]3)cc2Br)C1 (centres undefined)
2. CN(C)CCOc1ccc(CCNC(=O)c2ccc[nH]2)cc1Br
3. CC1CCCN1CCOc1ccc(CCNC(=O)c2cc(Br)cs2)cc1Br (single isomer, unassigned; enantiomer 1)
4. O=C(NCCc1ccc(OCCN2CCC(F)C2)c(Br)c1)c1cc(Br)cs1 (single isomer, unassigned; enantiomer 1)

Solution:
[5.88, 5.81, 6.51, 5.96]
